Biological target: Influenza Hemagglutinin A (influenza A virus)
Assay: ELISA on Influenza Hemagglutinin A (1 ug/mL); 293 supernatant diluted 1:100
endpoint.name: ELISA signal
Please reply with the number alone, leaving off any unit.

Known results for binders:
| binder | endpoint.name | test.result |
| --- | --- | --- |
| F1-04 (VHH) VHH: QVQLVESGGGLVQVGGSLRLSCAASERPSSNYAMGWFRQAPGKEQEFVAAIYWSGGGTAYGDSVKGRFTISKDNAKNTVYLQMNDLKPEDTGMYYCTTDHYGSWSYEYGSWGQGTQVTVSS | ELISA signal | 2 |
| F2-20 (VHH) VHH: QVQLVESGGGLVQAGGSLRLSCAASGRTFSRYAMGWFRQAPGKEREFVARISWSGDITYYADSVKGRFTISRDNAKNTVYLQMNSLKPEDTAVYYCAADAILRTRPPYESDYWGQGTQVTVSS | ELISA signal | 0.629 |
| F2-02 (VHH) VHH: QVQLVESGGGLVQAGGSLRLSCAASGRTFRSFAMGWFRQAPGKEREFVATISWWSNNTYYADSVKGRFTISRDIAKNTVYLQMNSLKPEDTAVYYCAADLGPWLTAGQYDYWGQGTQVTVSS | ELISA signal | 1.09 |

Now consider the entry below.
Incoming: Returns the measured ELISA signal for the input binder. Input: F2-24 (VHH) VHH: QVQLVESGGGLVQAGGSLRLSCASSGHTFNSYVMGWFRQAPGKEREFVAAIRPSGVSTYYADSVKGRFTISRDNAKNTVSLEMNSLKPEDTAVYYCAGDRDHSMMAVRRLSSYRQWGRGTQVTVSS
Outgoing: 0.427
